System: A549
experimentSummary: Cytotoxicity against human A549 cells after 48 hrs by SRB assay
Type: functional, cell-based
condition: Homo sapiens, A549, 48 h
quantityKind: LC50 (µM)
The figure you give is taken to be in µM; do not add the unit.

[in] Provide value of LC50 for this record tested with A549: C/C=C1\NC(=O)[C@@H]2Cc3ccccc3CN2C(=O)[C@@H](C(C)C)NC(=O)[C@@H]([C@H](C)CC)NC(=O)[C@H](NC(=O)[C@H](NC(=O)[C@H](CCCN)NC(=O)[C@H]2CCCN2C(=O)[C@H](NC(=O)[C@@H](NC(=O)[C@@H](NC(=O)[C@H](NC(=O)CC[C@@H](C)CC)C(C)C)[C@@H](C)O)C(C)C)C(C)C)[C@H](C)CC)[C@H](C)OC(=O)[C@H](C(C)C)NC1=O
[out] 1.2

[in] Tell me reported LC50 for C/C=C1\NC(=O)[C@H](Cc2ccc(I)cc2)NC(=O)[C@@H](C(C)C)NC(=O)[C@@H]([C@H](C)CC)NC(=O)[C@H](NC(=O)[C@H](NC(=O)[C@H](CCCN)NC(=O)[C@H]2CCCN2C(=O)[C@H](NC(=O)[C@@H](NC(=O)[C@@H](NC(=O)[C@H](NC(=O)CC[C@@H](C)CC)C(C)C)[C@@H](C)O)C(C)C)C(C)C)[C@H](C)CC)[C@H](C)OC(=O)[C@H](C(C)C)NC1=O , tested with A549.
[out] 0.181

[in] What measured LC50 is associated with C/C=C1\NC(=O)[C@H](Cc2ccccc2)NC(=O)[C@@H](C(C)C)NC(=O)[C@@H]([C@H](C)CC)NC(=O)[C@H](NC(=O)[C@H](NC(=O)[C@H](CCCN)NC(=O)[C@H]2CCCN2C(=O)[C@H](NC(=O)[C@@H](NC(=O)[C@@H](NC(=O)[C@H](NC(=O)CC[C@@H](C)[C@H]2CC[C@H]3[C@@H]4CC[C@@H]5C[C@H](O)CC[C@]5(C)[C@H]4CC[C@]23C)C(C)C)[C@@H](C)O)C(C)C)C(C)C)[C@H](C)CC)[C@H](C)OC(=O)[C@H](C(C)C)NC1=O on A549?
[out] 3.58

[in] Give A549 LC50 for C/C=C1\NC(=O)[C@H](Cc2ccccc2)NC(=O)[C@@H](C(C)C)NC(=O)[C@@H]([C@H](C)CC)NC(=O)[C@H](NC(=O)[C@H](NC(=O)[C@H](CCCN)NC(=O)[C@H]2CCCN2C(=O)[C@H](NC(=O)[C@@H](NC(=O)[C@@H]2CCCN2C(=O)[C@H](NC(=O)CCCC(C)C)C(C)C)C(C)C)C(C)C)[C@H](C)CC)[C@H](C)OC(=O)[C@H](C(C)C)NC1=O
[out] 4.69

[in] Give A549 LC50 for C/C=C1\NC(=O)[C@H](Cc2ccccc2)NC(=O)[C@@H](C(C)C)NC(=O)[C@@H]([C@H](C)CC)NC(=O)[C@H](NC(=O)[C@H](NC(=O)[C@H](CCCN)NC(=O)[C@H]2CCCN2C(=O)[C@H](NC(=O)[C@@H](NC(=O)[C@H](CCCN)NC(=O)[C@H](NC(=O)CCCC(C)C)C(C)C)C(C)C)C(C)C)[C@H](C)CC)[C@H](C)OC(=O)[C@H](C(C)C)NC1=O
[out] 4.62

----------
For each entry below, report its GI50 value.
Test system: HT-29
experimentSummary: Cytotoxicity against human HT29 cells after 48 hrs by SRB assay
Format: functional, cell-based
condition: Homo sapiens, HT-29, 48 h
Number in nM, nothing else.

[in] So what does the record say about GI50 for C/C=C1\NC(=O)[C@H](Cc2ccccc2)NC(=O)[C@@H](CCC2CCCCC2)NC(=O)[C@@H](CCC2CCCCC2)NC(=O)[C@H](NC(=O)[C@@H](CCC2CCCCC2)NC(=O)[C@H](CCCN)NC(=O)[C@H]2CCCN2C(=O)[C@H](NC(=O)[C@@H](NC(=O)[C@@H](NC(=O)[C@H](NC(=O)CCCC(C)C)C(C)C)[C@@H](C)O)C(C)C)C(C)C)[C@H](C)OC(=O)[C@H](C(C)C)NC1=O ?
[out] 359

[in] Could you tell me which GI50 is on file for C/C=C1\NC(=O)[C@H](Cc2ccccc2)NC(=O)[C@@H](C(C)C)NC(=O)[C@@H]([C@H](C)CC)NC(=O)[C@H](NC(=O)[C@H](NC(=O)[C@H](CCCNC(=O)c2cc(F)c(F)c(F)c2F)NC(=O)[C@H]2CCCN2C(=O)[C@H](NC(=O)[C@@H](NC(=O)[C@@H](NC(=O)[C@H](NC(=O)CCCC(C)C)C(C)C)[C@@H](C)O)C(C)C)C(C)C)[C@H](C)CC)[C@H](C)OC(=O)[C@H](C(C)C)NC1=O ?
[out] 116

[in] Look up GI50 for this molecule: CC[C@@H](C)[C@@H](NC(=O)[C@H](CCCN)NC(=O)[C@H]1CCCN1C(=O)[C@H](NC(=O)[C@@H](NC(=O)[C@@H](NC(=O)[C@H](NC(=O)CCCC(C)C)C(C)C)[C@@H](C)O)C(C)C)C(C)C)C(=O)N[C@H]1C(=O)N[C@H]([C@H](C)CC)C(=O)N[C@H](C(C)C)C(=O)N[C@@H](Cc2ccccc2)C(=O)N[C@H]([C@H](C)O)C(=O)N[C@@H](C(C)C)C(=O)O[C@H]1C
[out] 11800

----------
Tested on: DU-145
experimentSummary: Cytotoxicity against human DU145 cells after 48 hrs by SRB assay
Type: functional, cell-based
condition: Homo sapiens, DU-145, 48 h; read-out: GI50
quantityKind: GI50 (nM)
# number only, unit nM dropped from output

[in] // GI50 lookup, key: C/C=C1\NC(=O)[C@H](Cc2ccccc2)NC(=O)[C@@H](C(C)C)NC(=O)[C@@H]([C@H](C)CC)NC(=O)[C@H](NC(=O)[C@H](NC(=O)[C@H](CCCN)NC(=O)[C@H]2CCCN2C(=O)[C@H](NC(=O)[C@@H](NC(=O)[C@@H](NC(=O)[C@H](NC(=O)C(F)(F)C(F)(F)C(F)(F)C(F)(F)C(F)(F)C(F)(F)F)C(C)C)[C@@H](C)O)C(C)C)C(C)C)[C@H](C)CC)[C@H](C)OC(=O)[C@H](C(C)C)NC1=O
[out] 534

[in] GI50 for C/C=C1\NC(=O)[C@H](Cc2ccc(OC)cc2)NC(=O)[C@@H](C(C)C)NC(=O)[C@@H]([C@H](C)CC)NC(=O)[C@H](NC(=O)[C@H](NC(=O)[C@H](CCCN)NC(=O)[C@H]2CCCN2C(=O)[C@H](NC(=O)[C@@H](NC(=O)[C@@H](NC(=O)[C@H](NC(=O)CC[C@@H](C)CC)C(C)C)[C@@H](C)O)C(C)C)C(C)C)[C@H](C)CC)[C@H](C)OC(=O)[C@H](C(C)C)NC1=O ?
[out] 858

[in] Quick check: GI50 of C/C=C1\NC(=O)[C@H](Cc2ccccc2)NC(=O)[C@@H](C(C)C)NC(=O)[C@@H]([C@H](C)CC)NC(=O)[C@H](NC(=O)[C@H](NC(=O)[C@H](CCCN)NC(=O)[C@H]2CCCN2C(=O)[C@H](NC(=O)[C@@H](NC(=O)[C@@H](NC(=O)[C@@H](C)NC(=O)CCCC(C)C)[C@@H](C)O)C(C)C)C(C)C)[C@H](C)CC)[C@H](C)OC(=O)[C@H](C(C)C)NC1=O ?
[out] 1810

[in] Which GI50 value is on record for C/C=C1\NC(=O)[C@H](Cc2ccccc2)NC(=O)[C@@H](C(C)C)NC(=O)[C@@H]([C@H](C)CC)NC(=O)[C@H](NC(=O)[C@H](NC(=O)[C@H](CCCN)NC(=O)[C@H]2CCCN2C(=O)[C@H](NC(=O)[C@@H](NC(=O)[C@@H](NC(=O)[C@H](NC(=O)CC[C@@H](C)[C@H]2CC[C@H]3[C@@H]4CC[C@@H]5C[C@H](O)CC[C@]5(C)[C@H]4CC[C@]23C)C(C)C)[C@@H](C)O)C(C)C)C(C)C)[C@H](C)CC)[C@H](C)OC(=O)[C@H](C(C)C)NC1=O ?
[out] 5100

[in] Which GI50 reading was recorded for the molecule C/C=C1\NC(=O)[C@H](Cc2ccccc2)NC(=O)[C@@H](C(C)C)NC(=O)[C@@H]([C@H](C)CC)NC(=O)[C@H](NC(=O)[C@H](NC(=O)[C@H](CCCN)NC(=O)[C@H]2CCCN2C(=O)[C@H](NC(=O)[C@@H](NC(=O)[C@@H](NC(=O)[C@@H](CCC(=O)O)NC(=O)CCCC(C)C)[C@@H](C)O)C(C)C)C(C)C)[C@H](C)CC)[C@H](C)OC(=O)[C@H](C(C)C)NC1=O ?
[out] 2840

[in] GI50 for C/C=C1\NC(=O)[C@H](Cc2ccccc2)NC(=O)[C@@H](C(C)C)NC(=O)[C@@H]([C@H](C)CC)NC(=O)[C@H](N)[C@H](C)OC(=O)[C@H](C(C)C)NC1=O ?
[out] 5100

[in] Could you share which GI50 value was measured for C/C=C1\NC(=O)[C@H](Cc2ccccc2)NC(=O)[C@@H](C(C)C)NC(=O)[C@@H]([C@H](C)CC)NC(=O)[C@H](NC(=O)[C@H](NC(=O)[C@H](CCCN)NC(=O)[C@H]2CCCN2C(=O)[C@H](NC(=O)[C@@H](NC(=O)[C@@H](NC(=O)[C@H](NC(=O)CC[C@H](C)CC)C(C)C)[C@@H](C)O)C(C)C)C(C)C)[C@H](C)CC)[C@H](C)OC(=O)[C@H](C(C)C)NC1=O ?
[out] 1440

[in] Please report the recorded GI50 for C/C=C1\NC(=O)[C@H](Cc2ccc(F)cc2)NC(=O)[C@@H](C(C)C)NC(=O)[C@@H]([C@H](C)CC)NC(=O)[C@H](NC(=O)[C@H](NC(=O)[C@H](CCCN)NC(=O)[C@H]2CCCN2C(=O)[C@H](NC(=O)[C@@H](NC(=O)[C@@H](NC(=O)[C@H](NC(=O)CC[C@@H](C)CC)C(C)C)[C@@H](C)O)C(C)C)C(C)C)[C@H](C)CC)[C@H](C)OC(=O)[C@H](C(C)C)NC1=O .
[out] 891

[in] Dear colleague, I am looking for the recorded GI50 of the following molecule: C/C=C1\NC(=O)[C@H](Cc2ccccc2)NC(=O)[C@@H](C(C)C)NC(=O)[C@@H]([C@H](C)CC)NC(=O)[C@H](NC(=O)[C@H](NC(=O)[C@H](CCCN)NC(=O)[C@H]2CCCN2C(=O)[C@H](NC(=O)[C@@H](NC(=O)[C@@H](NC(=O)[C@@H](CCC(N)=O)NC(=O)CCCC(C)C)[C@@H](C)O)C(C)C)C(C)C)[C@H](C)CC)[C@H](C)OC(=O)[C@H](C(C)C)NC1=O
[out] 1460

[in] Which measured GI50 value corresponds to C/C=C1\NC(=O)[C@H](Cc2ccccc2)NC(=O)[C@@H](C(C)C)NC(=O)[C@@H]([C@H](C)CC)NC(=O)[C@H](NC(=O)[C@H](NC(=O)[C@H](CCCCN)NC(=O)[C@H]2CCCN2C(=O)[C@H](NC(=O)[C@@H](NC(=O)[C@@H](NC(=O)[C@H](NC(=O)CCCC(C)C)C(C)C)[C@@H](C)O)C(C)C)C(C)C)[C@H](C)CC)[C@H](C)OC(=O)[C@H](C(C)C)NC1=O ?
[out] 1290
